Escherichia coli ATCC 25922 data, read-out MIC
Response body: numeric value in µM, unit text excluded.

Examples with their reported MIC follow.
query.smiles	measurement.target	MIC [µM]
CC[C@H](C)[C@H](N)C(=O)N[C@@H](CC(C)C)C(=O)N[C@@H](CO)C(=O)N[C@@H](CC(C)C)C(=O)N[C@@H](CCCN=C(N)N)C(=O)N[C@@H](Cc1c[nH]c2ccccc12)C(=O)N[C@@H](CCCN=C(N)N)C(=O)N[C@@H](Cc1c[nH]c2ccccc12)C(=O)N[C@@H](Cc1c[nH]c2ccccc12)C(=O)N[C@@H](CCCCN)C(=O)N[C@@H](Cc1c[nH]c2ccccc12)C(=O)N[C@@H](CCCCN)C(=O)N[C@@H](CCCCN)C(=O)O	Escherichia coli ATCC 25922	8
CC(C)C[C@H](NC(=O)CNC(=O)[C@@H]1CCCN1C(=O)[C@H](CCCCN)NC(=O)[C@H](CCCCN)NC(=O)[C@@H]1CCCN1C(=O)[C@H](CCCN=C(N)N)NC(=O)[C@H](CC(=O)O)NC(=O)[C@@H](N)CCCCN)C(=O)N[C@@H](CS)C(=O)N1CCC[C@H]1C(=O)N[C@@H](C)C(=O)N[C@@H](C)C(=O)N[C@@H](CCCCN)C(=O)N[C@@H](CCCCN)C(=O)N[C@@H](C)C(=O)N[C@@H](C)C(=O)N[C@@H](C)C(=O)N[C@@H](C)C(=O)N[C@@H](CCCCN)C(=O)N[C@@H](C)C(N)=O	Escherichia coli ATCC 25922	14.7
CC[C@H](C)[C@H](N)C(=O)N[C@@H](CCCN=C(N)N)C(=O)N[C@H](C(=O)N[C@@H](CCCN=C(N)N)C(=O)N[C@H](C(=O)N[C@@H](CCCN=C(N)N)C(=O)N[C@H](C(=O)N[C@@H](CCCN=C(N)N)C(N)=O)[C@@H](C)CC)[C@@H](C)CC)[C@@H](C)CC	Escherichia coli ATCC 25922	7.12

Next up:
Checklist item: MIC tested on Escherichia coli ATCC 25922, entry NC(=O)[C@H](Cc1c[nH]c2ccccc12)NC(=O)[C@H](CCCN=C(N)N)NC(=O)[C@H](CCCN=C(N)N)NC(=O)[C@H](Cc1c[nH]c2ccccc12)NC(=O)[C@H](CCCN=C(N)N)NC(=O)[C@H](CCCN=C(N)N)NC(=O)[C@H](CCCN=C(N)N)NC(=O)[C@H](Cc1c[nH]c2ccccc12)NC(=O)[C@H](CCCN=C(N)N)NC(=O)[C@H](CCCN=C(N)N)NC(=O)[C@H](CCCN=C(N)N)NC(=O)[C@H](Cc1c[nH]c2ccccc12)NC(=O)[C@H](CCCN=C(N)N)NC(=O)[C@H](CCCN=C(N)N)NC(=O)[C@@H](N)Cc1c[nH]c2ccccc12 , value?
12.7
